Tested on: IGROV1 ovarian
Test: NCI tumour cell line growth inhibition, 48 h
In this section, each of the molecules is paired with its reported TGI.

{"columns": ["MOLECULE", "TGI"],
 "data": [
  ["COc1ccc2c(c1)c(-c1nc(-c3cn(C)c4ncccc34)cs1)cn2CCCCN1CCOCC1", "10.4 µM"],
  ["CCC(C)C(NC(=O)c1c2ccccc2nc2ccccc12)C(=O)O (stereo unspecified)", "> 100 µM"],
  ["CS(=O)(=O)N(CC(=O)O)Cc1ccccc1", "> 100 µM"]
]}

Look up and report measured TGI for this entry: N#Cc1nc(NC(=O)c2ccccc2)sc1N
> 10 µM

Look up and report measured TGI for this entry: O=C1c2cscc2C(=O)c2c(OCc3ccccc3)ccc(OCc3ccccc3)c21
> 100 µM

Look up and report measured TGI for this entry: O=C1c2ccccc2-n2c1nc1cc(Cl)ccc1c2=O
> 100 µM

Look up and report measured TGI for this entry: COc1cc(/C=C2/C(=O)N=C(NC(C)=O)N2C)ccc1OC(C)=O
> 100 µM

====

In this section, each of the compounds is paired with its reported TGI.
Tested on: UACC-62 melanoma
Assay: NCI tumour cell line growth inhibition, 48 h

{"columns": ["COMPOUND", "RECORDED VALUE"],
 "data": [
  ["COc1ccc(N2C(=O)C3c4[nH]c5cc(Cl)ccc5c4C4CCC(C(C)(C)C)CC4C3C2=O)cc1 (stereo not given)", "> 100 µM"],
  ["CC(C)NCCCCCNc1cc(O)cc2cccnc12", "> 100 µM"],
  ["CO[C@]12CCC(=O)N1C=Cc1c2[nH]c2ccccc12", "> 100 µM"]
]}

Look up and report measured TGI for this entry: O=C1Cc2c(-c3ccccc3)cc(-c3ccc4ccccc4c3)nc2-c2ccccc2N1
> 100 µM

Look up and report measured TGI for this entry: Cc1ccc(S(=O)(=O)c2ccsc2NC(=O)c2ccccc2)cc1
> 100 µM

Look up and report measured TGI for this entry: COc1ccc(NC(=O)CC(=O)n2nc(-c3ccccc3)c(N=Nc3ccccc3C)c2-c2ccccc2)cc1
46.6 µM

Look up and report measured TGI for this entry: Cc1cn(C2CC(N=[N+]=[N-])C(C(=O)O)O2)c(=O)[nH]c1=O (stereo not given)
> 100 µM

Look up and report measured TGI for this entry: CS(=O)(=O)c1ccc(-c2[nH]c3ccc(F)cc3c2/C=N/NC(N)=S)cc1
> 100 µM

Look up and report measured TGI for this entry: N#Cc1nc(NC(=O)c2ccccc2)sc1N
> 10 µM

Look up and report measured TGI for this entry: CCN(CC)c1nc(=O)c(C(=O)C(C)(C)C)c(C(C)(C)C)o1
> 100 µM

Look up and report measured TGI for this entry: CSC1CC2C(CC1(C)SC)C2(C)C (stereo not given)
> 100 µM

Look up and report measured TGI for this entry: O=C1c2ccccc2CCC1(Br)Br
4.54 µM

====

System: HCC-2998 colon
Experiment: NCI tumour cell line growth inhibition, 48 h
PROPERTY MEASURED: TGI (µM)
Provide the reading as a plain figure in µM.

Reference set (3 entries):
{"columns": ["COMPOUND", "ASSAYED TARGET", "PROPERTY MEASURED", "RECORDED VALUE"],
 "data": [
  ["CCCCCCCCCCNC(=S)OCCCC", "HCC-2998 colon", "TGI", 57],
  ["Oc1c2c(c3c4c1N=CC=4CCN=3)C1(C=C(Br)C(O)C(Br)=C1)CCN2 (centres undefined)", "HCC-2998 colon", "TGI", 4.61],
  ["COc1ccc2c(c1)c(-c1nc(-c3cn(C)c4ncccc34)cs1)cn2CCCCN1CCOCC1", "HCC-2998 colon", "TGI", 3.77]
]}

Now let's try a different one.
Look up and report measured TGI for this entry: CC(=O)OC(C#N)CC(C)(C)/[N+]([O-])=[N+](\[O-])C(C)(C)CC(C#N)OC(C)=O (centres undefined)
31.6
